Cited source for all entries: paper PMC10515640

- measured.on: 14-3-3σ/ERα (Homo sapiens, UniProt P03372+P31947)
- Construct: The 14-3-3 σ isoform (full-length for mass spectrometry and fluorescence anisotropy assays, ΔC for crystallography); made in house; host or cells: E. coli Rosetta 2(DE3)pLysS, pPROEX HTb vector
- Sequence (P31947 whole entry, other chains not shown, canonical isoform): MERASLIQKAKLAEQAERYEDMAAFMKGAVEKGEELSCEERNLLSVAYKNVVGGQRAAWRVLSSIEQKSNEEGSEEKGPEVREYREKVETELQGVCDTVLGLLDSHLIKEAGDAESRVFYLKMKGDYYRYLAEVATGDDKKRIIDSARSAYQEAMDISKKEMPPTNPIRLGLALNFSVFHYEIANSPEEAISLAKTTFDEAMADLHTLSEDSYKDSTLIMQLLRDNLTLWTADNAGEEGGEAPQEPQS
- experiment.description: Fluorescence anisotropy protein titration, FAM-labeled ERα peptide
- Format: binding
- experimental.conditions: 100 µM compound, 10 nM FAM-ERα peptide, overnight incubation
quantity.measured: Kd (nM)
Express your answer in nM, writing the number without its unit.

O=C(CCl)N1CCC2(CC1)CC(NC(=O)C1(Nc3ccc(Cl)cc3)CCOCC1)C2; 77
O=C(CCl)NCC1CCN(C(=O)C2(Nc3ccc(Cl)cc3)CCOCC2)CC1; 77
O=C(CCl)NCCCC1CCN(C(=O)C2(Nc3ccc(Cl)cc3)CCOCC2)CC1; 27
O=C(CCl)N1CCC2(CC1)CCN(C(=O)C1(Nc3ccc(Cl)cc3)CCOCC1)CC2; 119
CC1CC(Nc2ccc(Cl)cc2)(C(=O)NCC2CC3(CCN(C(=O)CCl)CC3)C2)CC(C)O1 (centres unmarked); 192

Request: Lab note: need Kd for CC1CC(Nc2ccc(Cl)cc2)(C(=O)N2CCC(CNC(=O)CCl)CC2)CC(C)O1 (centres unmarked) on 14-3-3σ/ERα (Homo sapiens, UniProt P03372+P31947), anyone have it?
Response: 94

Request: Lab note: need Kd for O=C(CCl)NCC1CCN(C(=O)C2(Nc3ccc(Cl)cc3)CCNCC2)CC1 on 14-3-3σ/ERα (Homo sapiens, UniProt P03372+P31947), anyone have it?
Response: 49

Request: Lab note: need Kd for O=C(CCl)NC1CC2(CCN(C(=O)C3(Nc4ccc(Cl)cc4)CCOCC3)CC2)C1 on 14-3-3σ/ERα (Homo sapiens, UniProt P03372+P31947), anyone have it?
Response: 160

----------
- measured.on: 14-3-3σ/ERα (Homo sapiens, UniProt P03372+P31947)
- Construct: The 14-3-3 σ isoform (full-length for mass spectrometry and fluorescence anisotropy assays, ΔC for crystallography); made in house; host or cells: E. coli Rosetta 2(DE3)pLysS, pPROEX HTb vector
- experiment.description: Mass spectrometry dose response, compound binding to 14-3-3σ in the presence of ERα phosphopeptide
- experimental.conditions: 100 nM compound, 100 nM 14-3-3σ, ERα-peptide 2 µM, 16h
Here, each record is paired with measured Percentage (%) bound of compound to 14-3-3σ, ERα 16h data.
Express your answer in %, writing the number without its unit.

Reference set, count: 8
O=C(CCl)NCC1CC2(CCN(C(=O)C3(Nc4ccc(Cl)cc4)CCOCC3)CC2)C1; 8.4
O=C(CCl)NCC1CCN(C(=O)C2(Nc3ccccc3)CCCC2)CC1; 0
Cl.O=C(CCl)NCC1CCN(C(=O)C2(Oc3ccc(Cl)cc3)CCNCC2)CC1; 58.4
O=C(CCl)NCC1CCN(C(=O)C2(Nc3ccccc3)CCCCC2)CC1; 0
O=C(CCl)NCC1CCN(C(=O)C2(Oc3ccc(Cl)cc3)CCCCC2)CC1; 11.5
O=C(CCl)NCC1CCN(C(=O)C2(Nc3ccc(Cl)cc3)CCCCC2)CC1; 20.8
CC(C)(Nc1ccc(Cl)cc1)C(=O)N1CCC(CNC(=O)CCl)CC1; 7.5
O=C(CCl)N1CC2(CCN(C(=O)C3(Nc4ccc(Cl)cc4)CCOCC3)CC2)C1; 48.4

Request: Endpoint output: Percentage (%) bound of compound to 14-3-3σ, ERα 16h of CC(C)(Oc1ccc(Cl)cc1)C(=O)N1CCC(CCCNC(=O)CCl)CC1 . Value?
Response: 3.1

Request: Endpoint output: Percentage (%) bound of compound to 14-3-3σ, ERα 16h of Cl.O=C(CCl)NCC1CCN(C(=O)C2(Nc3ccccc3)CCNCC2)CC1 . Value?
Response: 26.7

Request: Endpoint output: Percentage (%) bound of compound to 14-3-3σ, ERα 16h of NC1CCC(Nc2ccc(Cl)cc2)(C(=O)N2CCC(CNC(=O)CCl)CC2)CC1 (stereo not shown) . Value?
Response: 90.0

Request: Endpoint output: Percentage (%) bound of compound to 14-3-3σ, ERα 16h of O=C(CCl)NCC1CCN(C(=O)C2(Nc3ccc(Cl)cc3)CCOCC2)CC1 . Value?
Response: 56.8

Request: Endpoint output: Percentage (%) bound of compound to 14-3-3σ, ERα 16h of O=C(CCl)NC1CC2(CCN(C(=O)C3(Nc4ccc(Cl)cc4)CCOCC3)CC2)C1 . Value?
Response: 87.6
